PROTOCOL DESCRIPTION: physchem
MEASUREMENT CONTEXT: octan-1-ol/water, pH 7.4, LogD7.4
Known logD of a selection of molecules
OBSERVED PROPERTY: logD

- CN[C@@H](C)C(=O)N[C@H](C(=O)N[C@H]1CCCN(CCc2ccccc2)C1)C(C)(C)C: 1.46
- CCNC(=O)Nc1nc2cc(-c3cccnc3)ccc2[nH]1: 2.34
- CCCN(CCC)S(=O)(=O)c1ccc(C(=O)O)cc1: 0.03
- O=S(=O)(NCC(c1ccccc1)N1CCCCCC1)c1ccc(Br)cc1 (stereo not given): 3.21
- CNc1nc2ccccc2n1Cc1sc2c(c1C(=O)N1C[C@H](O)CO1)c(=O)n(C)c(=O)n2CC(C)C: 1.77

====

PROTOCOL DESCRIPTION: physchem
MEASUREMENT CONTEXT: pH 7.4 buffer
Mark 1 (yes) for reported solubility thermodynamic of 100 µM or greater; mark 0 (no) for anything smaller.

• O=C(c1ccc(F)cc1)C1CCN(C(=O)c2ccccc2)CC1 = 1 (yes)
• CCCOc1nc(N2CCC[C@@H](CC(=O)O)C2)ccc1C(=O)NC1CCCCC1 = 1 (yes)
• COc1ccccc1Oc1coc2cc(O)ccc2c1=O = 0 (no)
• O=S(=O)(Cc1c(F)cccc1F)N1CCN(c2ncccc2C(F)(F)F)CC1 = 0 (no)
• O=C(NCCNC(=O)c1cn(-c2ccccc2)nc1C(F)(F)F)c1ccc(Cl)cn1 = 0 (no)
• CCCN(CCO)CCCOc1ccc2c(Nc3cc(CC(=O)Nc4cccc(F)c4)[nH]n3)ncnc2c1 = 1 (yes)
• Cn1c(C#N)ccc1-c1cc(F)c2c(c1)C(C)(C)C(=O)N2 = 0 (no)
• CN(C)CCNS(=O)(=O)c1ccc(Nc2nccc(-c3cnc4ccccn34)n2)cc1 = 0 (no)
• Nc1ncnc(Nc2ccccc2)n1 = 1 (yes)
• CN(C)CCCN(C)S(=O)(=O)c1ccc(Nc2nccc(-c3cnc4ccccn34)n2)cc1 = 1 (yes)

====

PROTOCOL DESCRIPTION: in vitro
MEASUREMENT CONTEXT: SD, HW or BN, rat, plasma
Residues, ends and D or L forms follow the SMILES beside them.
OBSERVED PROPERTY: fraction unbound at 5 h

* Cc1cn([C@H]2CCCN([C@@H](CC(C)C)c3ccc(C(=O)O)c(Oc4cccc(Cl)c4)c3)C2)c(=O)[nH]c1=O | 0.016
* CN(C)C(=O)C(CCN1CCC(O)(c2ccc(Cl)cc2)CC1)(c1ccccc1)c1ccccc1 [LOPERAMIDE] | 0.0544
* C1Cc2[nH]nc(-c3nnn[nH]3)c2C1 | 0.072
* O=C(NCC1(O)CCCCCC1)c1cc(-c2ccccc2C(=O)O)ccc1Cl | 0.0909
* CC(C)C(NC(=O)c1ccccc1)C(=O)c1ccc(C#N)cc1 (stereo not drawn) | 0.124
* Cc1ccc(S(=O)(=O)Nc2c(C(=O)NC3CCOCC3)c(C)nn2-c2ccccc2)cc1 | 0.089
* O=[N+]([O-])c1ccc(-c2nc(-c3ccccc3)c(-c3ccccc3)[nH]2)cc1 | 0.0006
* Cc1nn(-c2ccccc2)nc1C(=O)N[C@@H]1COc2cccc(N3CCN(C)CC3)c2C1 | 0.0383
* c1nc(Cc2ccsc2)c[nH]1 | 0.371
* O=C(NCc1cccc(OC(F)(F)F)c1)C1c2ccccc2C(=O)N1CCc1ncc(F)cn1 (stereo not drawn) | 0.179
* CN(Cc1cccc2ccccc12)c1cc(N2CCOCC2)nc(=O)[nH]1 | 0.0064
* CCCNC(c1cccnc1)P(=O)(c1ccccc1)c1ccccc1 (stereo not drawn) | 0.173
* O=c1cc(N2CCOCC2)nc(NCc2cccc(Cl)c2)[nH]1 | 0.0477
* Cc1ncc2n1-c1ccc(Cl)cc1C(c1ccccc1F)=NC2 | 0.0457
* CCC(CC)NC(=O)c1cnn(-c2ccccn2)c1NS(=O)(=O)c1ccc(C)cc1 | 0.0499
* Cc1cn([C@H]2CCCN([C@H](C)c3ccc(C(=O)O)c(Oc4cccc(Cl)c4)c3)C2)c(=O)[nH]c1=O | 0.0293
* C[C@@](C(=O)O[C@H]1C[N+]2(CCc3ccccc3)CCC1CC2)(c1ccccc1)N1CCCCC1 | 0.22
* C[C@H](NC(=O)[C@@H](Cc1c[nH]c2ccccc12)NC(=O)[C@@H](N)Cc1c[nH]cn1)C(=O)N[C@@H](Cc1c[nH]c2ccccc12)C(=O)N[C@H](Cc1ccccc1)C(=O)N[C@@H](CCCCN)C(N)=O (HELM PEPTIDE1{H.[dW].A.W.[dF].K.[am]}$$$$V2.0) | 0.262
